B1: TRIM55 (parent)
chain: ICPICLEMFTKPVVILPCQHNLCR

- Variants of: B1
- assay-comment: protein stability index of a GFP-peptide fusion (GPS, HEK-293T) (PSI 1-6); higher = more stable;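 also: lentivirally expressed fusions sorted by FACS into six bins by GFP to DsRed ratio, PSI derived from sequencing read proportions per bin multiplied by bin number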
- recorded-conditions: c terminus: a fixed tail appended
readout-type: protein stability index
Keep it simple and answer with nothing but the number.

*Q* Determine its reported protein stability index: P12N
*A* 2.99

*Q* For the variant C18H , give its measured protein stability index value.
*A* 2.27

*Q* # return recorded protein stability index for input C18T
*A* 1.98

*Q* Give the reported value of protein stability index for this record: L16V
*A* 2.68

*Q* Recall and state the measured protein stability index for I4H .
*A* 2.26

*Q* Return value of protein stability index for input E7V , no commentary.
*A* 1.42

*Q* Give protein stability index for P3K
*A* 1.66

*Q* Specify protein stability index for C5R and stop.
*A* 1.22

*Q* Answer with the recorded protein stability index for the variant listed here: F9I
*A* 2.77

*Q* State its protein stability index for this variant: I1E
*A* 2.85

*Q* Identify measured protein stability index corresponding to P3E
*A* 2.21

*Q* Supply recorded protein stability index for C23I here.
*A* 1.82

*Q* Supply recorded protein stability index for T10S here.
*A* 2.74

*Q* Identify measured protein stability index associated with C5T
*A* 1.73

*Q* Input P12A , output reported protein stability index.
*A* 2.19

*Q* Please give measured protein stability index of the following entry: I15L
*A* 2.6

*Q* Given the variant L22N , write its reported protein stability index.
*A* 2.54

*Q* For the variant P3S , give its measured protein stability index value.
*A* 1.75

*Q* Quick one: give measured protein stability index for P12C
*A* 2.42

*Q* Answer with the recorded protein stability index of H20A only.
*A* 2.22

*Q* Write down protein stability index measured for item V14Y
*A* 2.15

*Q* Report protein stability index for C23L
*A* 2.28
